# Test system: B16-F1 cells
# PROTOCOL DETAILS: Cell transfection with SEAP plasmid, B16-F1
# Format: cell-based, mouse
# APPLIED CONDITIONS: in complex with pVitro14 LGFP SEAP plasmid, 48 hours, SEAP expression; FIG. 5B
MEASURED PROPERTY: ability to transfect B16-F1 cells

1. CCCCCCCCCCCCCCCC(=O)OCC(CSC[C@H](N)C(=O)N[C@@H](CCC(=O)NCCCNCCCCNCCCN)C(=O)Nc1ccc(Cn2c(O)nc3c(N)nc(NCCCC)nc32)cc1)OC(=O)CCCCCCCCCCCCCCC (stereo partly shown)
transfect B16-F1 cells
2. CCCCCCCCCCCCCCCC(=O)OCC(CSC[C@H](N)C(=O)NCCCNCCCCNCCCNC(=O)CNC(=O)c1ccc(Cn2c(O)nc3c(N)nc(NCCCC)nc32)cc1)OC(=O)CCCCCCCCCCCCCCC (stereo partly shown)
transfect B16-F1 cells
3. CCCCCCCCCCCCCCCC(=O)OCC(CSC[C@H](N)C(=O)N[C@@H](COC(=O)c1ccc(Cn2c(O)nc3c(N)nc(NCCCC)nc32)cc1)C(=O)NCCCNCCCCNCCCN)OC(=O)CCCCCCCCCCCCCCC (stereo partly shown)
transfect B16-F1 cells

###

# TESTED SYSTEM: human TLR7 (Homo sapiens, UniProt Q9NYK1)
# Construct: host or cells: HEK293 (HEK-Blue™ hTLR7)
# Sequence (Q9NYK1 27-1049): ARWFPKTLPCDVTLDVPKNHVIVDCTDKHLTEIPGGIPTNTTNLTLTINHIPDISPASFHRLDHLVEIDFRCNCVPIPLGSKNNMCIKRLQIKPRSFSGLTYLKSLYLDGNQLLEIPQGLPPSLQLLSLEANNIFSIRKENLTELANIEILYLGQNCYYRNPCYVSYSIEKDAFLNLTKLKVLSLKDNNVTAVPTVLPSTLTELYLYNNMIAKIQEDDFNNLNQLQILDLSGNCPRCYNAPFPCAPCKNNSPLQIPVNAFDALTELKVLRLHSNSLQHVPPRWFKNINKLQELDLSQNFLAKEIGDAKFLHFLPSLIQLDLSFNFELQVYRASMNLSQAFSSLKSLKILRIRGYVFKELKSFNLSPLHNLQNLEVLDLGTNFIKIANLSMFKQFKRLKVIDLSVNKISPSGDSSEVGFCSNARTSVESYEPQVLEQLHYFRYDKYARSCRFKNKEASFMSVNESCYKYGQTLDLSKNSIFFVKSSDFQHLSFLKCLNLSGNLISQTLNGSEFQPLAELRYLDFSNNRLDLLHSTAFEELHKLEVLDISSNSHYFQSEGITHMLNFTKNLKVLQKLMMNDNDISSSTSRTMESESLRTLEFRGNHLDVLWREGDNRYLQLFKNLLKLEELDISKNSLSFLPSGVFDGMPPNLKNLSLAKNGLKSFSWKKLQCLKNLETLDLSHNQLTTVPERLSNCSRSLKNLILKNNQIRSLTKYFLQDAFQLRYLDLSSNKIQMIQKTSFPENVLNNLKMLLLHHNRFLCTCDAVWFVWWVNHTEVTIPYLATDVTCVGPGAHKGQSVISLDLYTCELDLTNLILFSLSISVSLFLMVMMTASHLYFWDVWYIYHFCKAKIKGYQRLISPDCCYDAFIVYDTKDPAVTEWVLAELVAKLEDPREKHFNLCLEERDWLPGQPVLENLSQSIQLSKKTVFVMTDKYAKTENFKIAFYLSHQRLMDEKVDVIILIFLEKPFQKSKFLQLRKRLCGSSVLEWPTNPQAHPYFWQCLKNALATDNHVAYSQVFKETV
# PROTOCOL DETAILS: HEK-Blue hTLR7 NF-κB/AP-1 SEAP reporter assay
# Type: cell-based
# APPLIED CONDITIONS: HEK-Blue hTLR7 cells, 10 μg/mL to 10 pg/ml, 24 hours, OD at 655 nm, FIG. 1
# Description: Cell-based assays were carried out using TLR7 and TLR2 reporter cell lines (InvivoGen). […] Detection of SEAP is measured following culturing cells in HEK-Blue™ Detection media (InvivoGen). […]
MEASURED PROPERTY: ability to activate hTLR7

1) CCCCCCCCCCCCCCCC(=O)OCC(CSC[C@H](N)C(=O)NCCCNCCCCNCCCNC(=O)CNC(=O)c1ccc(Cn2c(O)nc3c(N)nc(NCCCC)nc32)cc1)OC(=O)CCCCCCCCCCCCCCC (stereo partly drawn)
activate hTLR7
2) CCCCCCCCCCCCCCCC(=O)N[C@@H](CSCC(COC(=O)CCCCCCCCCCCCCCC)OC(=O)CCCCCCCCCCCCCCC)C(=O)N[C@@H](CO)C(=O)N[C@@H](CCCCN)C(=O)N[C@@H](CCCCN)C(=O)N[C@@H](CCCCNC(=O)c1ccc(Cn2c(O)nc3c(N)nc(NCCCC)nc32)cc1)C(=O)N[C@@H](CCCCN)C(=O)O (stereo partly drawn)
activate hTLR7
3) CCCCCCCCCCCCCCCC(=O)OCC(CSC[C@H](N)C(=O)NCCCC[C@H](NC(=O)CNC(=O)c1ccc(Cn2c(O)nc3c(N)nc(NCCCC)nc32)cc1)C(=O)NCCCNCCCCNCCCN)OC(=O)CCCCCCCCCCCCCCC (stereo partly drawn)
activate hTLR7

###

# TESTED SYSTEM: human TLR2 (Homo sapiens)
# Construct: host or cells: HEK293 (HEK-Blue™ hTLR2)
# Sequence (O60603 21-784): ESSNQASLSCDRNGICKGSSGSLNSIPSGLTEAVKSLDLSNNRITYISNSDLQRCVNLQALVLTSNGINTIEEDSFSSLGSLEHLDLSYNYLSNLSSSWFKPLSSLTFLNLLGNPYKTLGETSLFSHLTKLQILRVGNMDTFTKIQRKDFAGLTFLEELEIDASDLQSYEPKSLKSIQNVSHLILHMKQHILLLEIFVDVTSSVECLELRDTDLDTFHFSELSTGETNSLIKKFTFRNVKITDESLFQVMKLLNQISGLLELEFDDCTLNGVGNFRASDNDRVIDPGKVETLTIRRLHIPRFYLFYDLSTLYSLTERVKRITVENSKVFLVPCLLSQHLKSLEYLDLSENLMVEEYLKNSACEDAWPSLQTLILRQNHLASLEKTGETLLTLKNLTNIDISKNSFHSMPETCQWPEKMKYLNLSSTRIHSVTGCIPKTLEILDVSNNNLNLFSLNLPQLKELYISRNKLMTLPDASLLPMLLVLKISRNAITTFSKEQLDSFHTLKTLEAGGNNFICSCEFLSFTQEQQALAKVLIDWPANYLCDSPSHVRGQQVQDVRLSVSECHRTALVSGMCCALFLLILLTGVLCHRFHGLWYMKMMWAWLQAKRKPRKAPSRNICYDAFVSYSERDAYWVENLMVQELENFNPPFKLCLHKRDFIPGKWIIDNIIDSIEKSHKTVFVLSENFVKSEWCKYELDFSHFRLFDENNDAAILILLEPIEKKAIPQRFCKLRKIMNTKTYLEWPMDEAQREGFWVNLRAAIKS
# PROTOCOL DETAILS: HEK-Blue hTLR2 NF-κB/AP-1 SEAP reporter assay
# Format: cell-based
# APPLIED CONDITIONS: HEK-Blue hTLR2 cells, 10 μg/mL to 10 pg/ml, 24 hours, OD at 655 nm, FIG. 3
MEASURED PROPERTY: ability to activate hTLR2

1) CCCCCCCCCCCCCCCC(=O)OCC(CSC[C@H](N)C(=O)NCCCC[C@H](NC(=O)c1ccc(Cn2c(O)nc3c(N)nc(NCCCC)nc32)cc1)C(=O)NCCCNCCCCNCCCN)OC(=O)CCCCCCCCCCCCCCC (stereo partly drawn) [CL486]
activate hTLR2
2) CCCCCCCCCCCCCCCC(=O)N[C@@H](CSCC(COC(=O)CCCCCCCCCCCCCCC)OC(=O)CCCCCCCCCCCCCCC)C(=O)N[C@@H](CO)C(=O)N[C@@H](CCCCN)C(=O)N[C@@H](CCCCN)C(=O)N[C@@H](CCCCN)C(=O)N[C@@H](CCCCN)C(=O)Nc1ccc(Cn2c(O)nc3c(N)nc(NCCCC)nc32)cc1 (stereo partly drawn) [CL534]
activate hTLR2
3) CCCCCCCCCCCCCCCC(=O)OCC(CSC[C@H](N)C(=O)N[C@@H](COC(=O)c1ccc(Cn2c(O)nc3c(N)nc(NCCCC)nc32)cc1)C(=O)NCCCNCCCCNCCCN)OC(=O)CCCCCCCCCCCCCCC (stereo partly drawn) [CL514]
activate hTLR2

Cited source: patent US9295732B2
